Data provenance is patent US10377774B2.

# Test system: K562 xenografts
# protocol-summary: K562 xenografts in nude mice
# Assay type: in vivo
# reported-conditions: K562 xenograft nude mice, 1 mg/kg
parameter-measured: Body weight (g) Post-dose
# value in g; strip the unit string

# compound, parameter-measured, measured-result
rows = [
    ("CCC12C=CCN3CCC4(c5cc(C6(C(=O)OC)CC7CC(C(C)(F)F)CN(Cc8c6[nH]c6ccccc86)C7)c(OC)cc5N(C)C4C(O)(C(=O)NNC(=O)C4CCCN4C(=O)CNC(=O)OCc4ccccc4)C1O)C32 (centres unmarked)", "Body weight (g) Post-dose", 23.0),
    ("CCC1(O)CC2CN(CCc3c([nH]c4ccccc34)C(C(=O)OC)(c3cc4c(cc3OC)N(C=O)C3C(O)(C(=O)NNC(=O)C5CCCN5C(=O)CNC(=O)OCc5ccccc5)C(O)C5(CC)C=CCN6CCC43C65)C2)C1 (centres unmarked)", "Body weight (g) Post-dose", 22.5),
    ("CC[C@]12C=CCN3CC[C@@]4(c5cc([C@@]6(C(=O)OC)C[C@@H]7C[C@@H](C(C)(F)F)CN(Cc8c6[nH]c6ccccc86)C7)c(OC)cc5N(C)[C@H]4[C@@](O)(C(=O)NN)[C@@H]1O)[C@@H]32 [JJ-CCFN, hydrazinolyzed vinflunine]", "Body weight (g) Post-dose", 17.4),
    ("CCC1=C[C@@H]2CN(C1)Cc1c([nH]c3ccccc13)[C@@](C(=O)OC)(c1cc3c(cc1OC)N(C)[C@H]1[C@@](O)(C(=O)NN)[C@H](O)[C@]4(CC)C=CCN5CC[C@]31[C@@H]54)C2 [JJ-CCRB, hydrazinolyzed vinorelbine]", "Body weight (g) Post-dose", 18.2),
]

// next entry
## Task What value of Body weight (g) Post-dose has been reported for the following compound? CC[C@]1(O)C[C@@H]2CN(CCc3c([nH]c4ccccc34)[C@@](C(=O)OC)(c3cc4c(cc3OC)N(C)[C@H]3[C@@](O)(C(=O)NN)[C@H](O)[C@]5(CC)C=CCN6CC[C@]43[C@@H]65)C2)C1 [JJ-CCJ, hydrazinolyzed vinblastine]
## Result 16.5

###

# Tested on: LOVO xenografts
# protocol-summary: LOVO xenografts in nude mice
# Format: in vivo
# reported-conditions: LOVO xenograft nude mice, before dosing
parameter-measured: Body weight (g) Pre-dose
Please give a number only; it is taken to be in g.

Before answering, review these 8 worked examples.
# molecule, target, Body weight (g) Pre-dose
measured = [
    ("CCC12C=CCN3CCC4(c5cc(C6(C(=O)OC)CC7CC(C(C)(F)F)CN(Cc8c6[nH]c6ccccc86)C7)c(OC)cc5N(C)C4C(O)(C(=O)NNC(=O)C4CCCN4C(=O)CNC(=O)OCc4ccccc4)C1O)C32 (stereo not drawn)", "LOVO xenografts", 23.6),
    ("CCC1=CC2CN(C1)Cc1c([nH]c3ccccc13)C(C(=O)OC)(c1cc3c(cc1OC)N(C)C1C(O)(C(=O)NNC(=O)C4CCCN4C(=O)CNC(=O)OCc4ccccc4)C(O)C4(CC)C=CCN5CCC31C54)C2 (stereo not drawn)", "LOVO xenografts", 23.6),
    ("CCC1(O)CC2CN(CCc3c([nH]c4ccccc34)C(C(=O)OC)(c3cc4c(cc3OC)N(C)C3C(O)(C(=O)NNC(=O)C5CCCN5C(=O)CNC(=O)OCc5ccccc5)C(O)C5(CC)C=CCN6CCC43C65)C2)C1 (stereo not drawn)", "LOVO xenografts", 23.8),
    ("CC[C@]1(O)C[C@@H]2CN(CCc3c([nH]c4ccccc34)[C@@](C(=O)OC)(c3cc4c(cc3OC)N(C)[C@H]3[C@@](O)(C(=O)OC)[C@H](OC(C)=O)[C@]5(CC)C=CCN6CC[C@]43[C@@H]65)C2)C1 [Vinblastine, reference compound]", "LOVO xenografts", 23.1),
    ("CC[C@]12C=CCN3CC[C@@]4(c5cc([C@@]6(C(=O)OC)C[C@@H]7C[C@@H](C(C)(F)F)CN(Cc8c6[nH]c6ccccc86)C7)c(OC)cc5N(C)[C@H]4[C@@](O)(C(=O)NN)[C@@H]1O)[C@@H]32 [JJ-CCFN, hydrazinolyzed vinflunine]", "LOVO xenografts", 22.7),
    ("CC[C@]1(O)C[C@@H]2CN(CCc3c([nH]c4ccccc34)[C@@](C(=O)OC)(c3cc4c(cc3OC)N(C)[C@H]3[C@@](O)(C(=O)NN)[C@H](O)[C@]5(CC)C=CCN6CC[C@]43[C@@H]65)C2)C1 [JJ-CCJ, hydrazinolyzed vinblastine]", "LOVO xenografts", 22.8),
    ("CCC1=C[C@@H]2CN(C1)Cc1c([nH]c3ccccc13)[C@@](C(=O)OC)(c1cc3c(cc1OC)N(C)[C@H]1[C@@](O)(C(=O)NN)[C@H](O)[C@]4(CC)C=CCN5CC[C@]31[C@@H]54)C2 [JJ-CCRB, hydrazinolyzed vinorelbine]", "LOVO xenografts", 23.2),
    ("CCC1(O)CC2CN(CCc3c([nH]c4ccccc34)C(C(=O)OC)(c3cc4c(cc3OC)N(C=O)C3C(O)(C(=O)NNC(=O)C5CCCN5C(=O)CNC(=O)OCc5ccccc5)C(O)C5(CC)C=CCN6CCC43C65)C2)C1 (stereo not drawn)", "LOVO xenografts", 23.8),
]

For the next question, use this molecule.
## Task Param readout = Body weight (g) Pre-dose; param system = LOVO xenografts; param query = CC[C@]1(O)C[C@@H]2CN(CCc3c([nH]c4ccccc34)[C@@](C(=O)OC)(c3cc4c(cc3OC)N[C@H]3[C@@](O)(C(=O)NN)[C@H](O)[C@]5(CC)C=CCN6CC[C@]43[C@@H]65)C2)C1 [JJ-CCXJ, hydrazinolyzed vincristine] ; response: value
## Result 22.9
